Assay: activity coefficient (dimensionless); of the first substance listed, at infinite dilution; xn = mol fraction of the nth substance listed
Details: 348.15 K; 101.33 kPa; Liquid; Chromatography; x1 = 0
PROPERTY_NAME: activity coefficient
Kindly provide the number alone.

Query string: Give reported activity coefficient value for CCCCCCC [heptane] + CCCCCCCCCCCCn1cc[n+](C)c1.O=S(=O)([N-]S(=O)(=O)C(F)(F)F)C(F)(F)F
Result string: 3.7

Query string: Give reported activity coefficient value for C1=CCCCC1 [cyclohexene] + CCCCCCCCCCCCn1cc[n+](C)c1.O=S(=O)([N-]S(=O)(=O)C(F)(F)F)C(F)(F)F
Result string: 1.65

Query string: Give reported activity coefficient value for Cc1ccc(C)cc1 [1,4-dimethylbenzene] + CCCCCCCCCCCCn1cc[n+](C)c1.O=S(=O)([N-]S(=O)(=O)C(F)(F)F)C(F)(F)F
Result string: 1

Query string: Give reported activity coefficient value for CCc1ccccc1 [ethylbenzene] + CCCCCCCCCCCCn1cc[n+](C)c1.O=S(=O)([N-]S(=O)(=O)C(F)(F)F)C(F)(F)F
Result string: 1.03

Query string: Give reported activity coefficient value for c1ccncc1 [pyridine] + CCCCCCCCCCCCn1cc[n+](C)c1.O=S(=O)([N-]S(=O)(=O)C(F)(F)F)C(F)(F)F
Result string: 0.435

Query string: Give reported activity coefficient value for CCCC=O [butanal] + CCCCCCCCCCCCn1cc[n+](C)c1.O=S(=O)([N-]S(=O)(=O)C(F)(F)F)C(F)(F)F
Result string: 0.531

Query string: Give reported activity coefficient value for C=C(C)c1ccccc1 [(1-methylethenyl)benzene] + CCCCCCCCCCCCn1cc[n+](C)c1.O=S(=O)([N-]S(=O)(=O)C(F)(F)F)C(F)(F)F
Result string: 0.949

Query string: Give reported activity coefficient value for CCOC(C)(C)C [2-ethoxy-2-methylpropane] + CCCCCCCCCCCCn1cc[n+](C)c1.O=S(=O)([N-]S(=O)(=O)C(F)(F)F)C(F)(F)F
Result string: 1.75

Query string: Give reported activity coefficient value for CCCc1ccccc1 [propylbenzene] + CCCCCCCCCCCCn1cc[n+](C)c1.O=S(=O)([N-]S(=O)(=O)C(F)(F)F)C(F)(F)F
Result string: 1.25

Query string: Give reported activity coefficient value for CCOC(C)=O [ethyl acetate] + CCCCCCCCCCCCn1cc[n+](C)c1.O=S(=O)([N-]S(=O)(=O)C(F)(F)F)C(F)(F)F
Result string: 0.619

Query string: Give reported activity coefficient value for CCCCC [pentane] + CCCCCCCCCCCCn1cc[n+](C)c1.O=S(=O)([N-]S(=O)(=O)C(F)(F)F)C(F)(F)F
Result string: 2.71

Query string: Give reported activity coefficient value for C#CCCC [1-pentyne] + CCCCCCCCCCCCn1cc[n+](C)c1.O=S(=O)([N-]S(=O)(=O)C(F)(F)F)C(F)(F)F
Result string: 1.2

Query string: Give reported activity coefficient value for CCCCCCCCC [nonane] + CCCCCCCCCCCCn1cc[n+](C)c1.O=S(=O)([N-]S(=O)(=O)C(F)(F)F)C(F)(F)F
Result string: 5.08

Query string: Give reported activity coefficient value for CC(C)O [propan-2-ol] + CCCCCCCCCCCCn1cc[n+](C)c1.O=S(=O)([N-]S(=O)(=O)C(F)(F)F)C(F)(F)F
Result string: 1.12
